The molecules listed here are annotated with their TGI.
system: TK-10 renal; assay: NCI tumour cell line growth inhibition, 48 h
Where a SMILES comes first, the peptide text is derived from it. Bridges are numbered along the chain shown (N, C = ends). [ ]: non-standard residue; d: D form. aThr = C[C@H](O)[C@H](N)C(=O)O

MOLECULE: O=c1cc(Nc2cccc(O)c2)[nH]c(=O)[nH]1
TGI: > 100 µM
//
MOLECULE: CC(C)C[C@@H]1NC(=O)[C@@H]2CCCN2C(=O)[C@@H]2CCCN2C(=O)[C@H](CC(C)C)NC(=O)[C@H](CO)NC(=O)[C@H](CCCCN)NC(=O)[C@H]([C@H](C)O)NC(=O)[C@@H]2CSSC[C@@H](NC1=O)C(=O)N[C@@H](Cc1ccccc1)C(=O)N1CCC[C@H]1C(=O)N[C@@H](CC(=O)O)C(=O)NCC(=O)N[C@@H](CCCN=C(N)N)C(=O)N2 (cyclo(C[aThr]KSLPPL[dC]FPDGR); disulfide 1-9)
TGI: > 50 µM
//
MOLECULE: Cc1nc2c(sc3nc4c(cc32)CCC4)c(=O)o1
TGI: > 100 µM
//
MOLECULE: CN=c1sc2c(n1C)C(=O)c1ccccc1C2=O
TGI: 35.6 µM
//
MOLECULE: CCOC(=O)c1c(NC(=O)c2ccccc2)c(C#N)c2n1CCCCC2
TGI: > 100 µM

input: Name the recorded TGI for O=NN(CCCl)C(=O)NC1CCC(CC(=O)O)CC1 (centres undefined) .
output: > 100 µM

---

The compounds listed here are annotated with their GI50.
test system: HOP-62 NSCLC; test: NCI tumour cell line growth inhibition, 48 h

COMPOUND: Cc1cccc(Cn2cc(CO)c3cnccc32)c1
GI50: > 100000 nM
--
COMPOUND: COc1cc(-c2nccc3[nH]c(-c4ccc5cc[nH]c5c4)nc23)cc(OC)c1OC
GI50: < 10 nM
--
COMPOUND: CC(=O)Oc1ccc(C2=Cc3ccc(OC(C)=O)cc3OC2C)cc1 (centres undefined)
GI50: 6070 nM
--
COMPOUND: CC(C)[C@@H]1CC[C@]2(CO2)[C@@H]2C(=O)OCC(C(=O)O)=C[C@H]21
GI50: 350 nM

input: Name the recorded GI50 for Nc1nc(=S)c2ncn(C3OC(COP(=O)(O)O)C(O)C3O)c2[nH]1 (centres undefined) .
output: 447 nM

input: Name the recorded GI50 for COc1ccc(Nc2cnc3cc(N)cc(N)c3n2)cc1 .
output: 24400 nM

---

test system: UO-31 renal; assay: NCI tumour cell line growth inhibition, 48 h
OBSERVATION_TYPE: GI50

Here's what some known entries look like.
COMPOUND: C=C(C#N)C(=O)OCC(CC)CC.C=C(C#N)C(=O)OCC(CC)CC.CS(C)=O.CS(C)=O.Nc1c(N=Nc2ccc(-c3ccc(N=Nc4cc(S(=O)(=O)[O-])c5ccccc5c4N)cc3)cc2)cc(S(=O)(=O)[O-])c2ccccc12.[Pt+2]
GI50: > 100000 nM
--
COMPOUND: CC(=O)NC1C(O[C@H]2C[C@H]3[C@@H]4CC=C5C[C@@H](O)CC[C@]5(C)[C@H]4CC[C@]3(C)[C@H]2[C@H](C)C(=O)CCC(C)C)OCC(O)C1O (stereo partly drawn)
GI50: 1180 nM

input: Which measured GI50 belongs to CC(=O)Oc1ccc(C2=Cc3ccc(OC(C)=O)cc3OC2C)cc1 (stereo not drawn) , tested on UO-31 renal?
output: 2050 nM
